Entries annotated with measured solubility kinetic
Details: buffer; pH 7.4; 200.0 µM
// note: answer is a bare numeric in µg/mL

Consider the worked cases shown below.
O=C(COC(=O)Cc1ccc(Cl)cc1)NCc1cccs1: 35.1
COc1cccc(/C=C/C(=O)NCC2CCCCC2)c1: 16.4
c1ccc(-c2csc3ncnc(NCc4ccccn4)c23)cc1: 40.1

Input line: Specify measured solubility kinetic for `O=C(NC(=S)Nc1ccccc1O)c1cncc(Br)c1` .
Output line: 9.4

Input line: Write down solubility kinetic measured for item COc1ccccc1N1C(=O)C2C3C=CC(CC3)C2C1=O (centres undefined)
Output line: 30.7

Input line: Let me know recorded solubility kinetic for `c1ccc2[nH]c(-c3cnco3)cc2c1` , thanks.
Output line: 21.6

Input line: Please indicate solubility kinetic recorded for `CCN(CC)C(=O)Cn1cc(SCC(=O)NC)c2ccccc21`
Output line: 46.5

###

Conditions: buffer; pH 7.4; 200.0 µM
// bucketize solubility kinetic: low value (below 3 µg/mL), medium value (3 µg/mL to below 40 µg/mL), high value (40 µg/mL or more)

CCCCC1(C)NC(=O)N(CC(=O)Nc2ccc(Cl)cc2C)C1=O (configuration not stated): high value
CCCn1c(N)c(N2CCCCC2)c(=O)n(CC(=O)Nc2cccc(S(=O)(=O)N(C)C)c2)c1=O: high value
COc1ccc([C@@H]2Sc3ccccc3NC(=O)[C@@H]2O)cc1: medium value
CCOC(=O)C1CCCN(C(=O)c2ccc(Cl)cc2)C1 (configuration not stated): high value

Input line: Which band does `O=C(NC(=S)NCc1ccco1)c1cccc(Cl)c1` fall in?
Output line: low value

Input line: Bin? `Cc1c(NC(=O)[C@@H](NC(=O)c2ccc(Cl)c([N+](=O)[O-])c2)C(C)C)c(=O)n(-c2ccccc2)n1C`
Output line: high value

Input line: # classify by solubility kinetic band: `CC(=O)N/C(=C\c1ccccc1)C(=O)OCc1ccccc1`
Output line: high value

Input line: Given `O=[N+]([O-])c1cccnc1SCc1ccccc1` , name the class its solubility kinetic places it in.
Output line: low value

Input line: Would you mind sorting `Cc1cnc(C(=O)OCC(=O)c2ccc(F)c(F)c2)cn1` into the appropriate category?
Output line: high value

Input line: Please classify: `O=C(COC(=O)c1cccs1)NC1CCCC1`
Output line: medium value

Input line: Class (by measured solubility kinetic) for `CC(=O)c1ccc(NC(=O)c2cccc(NC(=O)c3ccccc3)c2)cc1`
Output line: low value

Input line: Returns: class label. Input: `CCOC(=O)N1CCC(NS(=O)(=O)c2ccccc2)CC1`
Output line: high value

Input line: Which solubility kinetic category applies to `O=C(O)CN1c2cccc3cccc(c23)S1(=O)=O` here?
Output line: medium value

Input line: Dear colleague, I would appreciate it if you could identify the bin for COc1ccc(C(CNS(=O)(=O)c2ccc(NC(C)=O)c(OC)c2)N2CCCC2)cc1.Cl (configuration not stated) and reply at your convenience.
Output line: high value

Input line: Category lookup for the molecule `Cn1cccc1CNC(=S)Nc1cc(F)cc(F)c1`
Output line: high value

Input line: Returns: class label. Input: `Cc1cccc(NS(=O)(=O)c2ccc(C)c(C(=O)NCc3cccnc3)c2)c1`
Output line: high value

Input line: Which solubility kinetic band matches CN(C(=O)CSc1nc2ccccc2c(=O)n1-c1ccc(F)cc1F)C1CCS(=O)(=O)C1 (configuration not stated) ?
Output line: high value

Input line: Class for `O=C(CNC(=O)c1ccc(F)cc1)Nc1ccccc1C(F)(F)F` ?
Output line: medium value

Input line: Please let me know in which category the item `NC(=O)CN1C(=O)C(=O)N(Cc2cccc(Cl)c2)C1=O` belongs.
Output line: high value

Input line: Hi, small favor: classify Cc1cccc(CNC(=O)C2CCC(=O)N(C3CC3)C2)c1 (configuration not stated) by its solubility kinetic when you get a moment.
Output line: high value

Input line: Just checking, what class would you give `Cc1ccc(-n2c(C)c([N+](=O)[O-])c3ccc(O)cc32)cc1` here?
Output line: low value

Input line: Band for the recorded solubility kinetic of CC1CC(C)CN(CC(O)COC2CC(C)CC(C)(C)C2)C1.Cl (configuration not stated) ?
Output line: high value
